# study system: ruLAP2 (Trichophyton rubrum)
# Format: biochemical
# details: Leu-AMC 5 mM; inhibitor concentrations
reported metric: effect of inhibitor on ruLAP2 activity

O=C(O)c1cc[c]([Hg][Cl])cc1 [p-chloromercuribenzoate, p-chloromercuribenzoic acid] | blunted the activity
CC(C)C[C@H](NC(=O)[C@H]1O[C@@H]1C(=O)O)C(=O)NCCCCN=C(N)N (relative stereo) [E64] | blunted the activity

----------
For each entry below, report its pkLAP hydrolytic activity, percentage of control without any cation value.
# study system: pkLAP (microsomal LAP from porcine kidney) (Sus scrofa, UniProt P15145)
# Construct: purchased Sigma; host or cells: porcine kidney
# Sequence (P15145 whole entry): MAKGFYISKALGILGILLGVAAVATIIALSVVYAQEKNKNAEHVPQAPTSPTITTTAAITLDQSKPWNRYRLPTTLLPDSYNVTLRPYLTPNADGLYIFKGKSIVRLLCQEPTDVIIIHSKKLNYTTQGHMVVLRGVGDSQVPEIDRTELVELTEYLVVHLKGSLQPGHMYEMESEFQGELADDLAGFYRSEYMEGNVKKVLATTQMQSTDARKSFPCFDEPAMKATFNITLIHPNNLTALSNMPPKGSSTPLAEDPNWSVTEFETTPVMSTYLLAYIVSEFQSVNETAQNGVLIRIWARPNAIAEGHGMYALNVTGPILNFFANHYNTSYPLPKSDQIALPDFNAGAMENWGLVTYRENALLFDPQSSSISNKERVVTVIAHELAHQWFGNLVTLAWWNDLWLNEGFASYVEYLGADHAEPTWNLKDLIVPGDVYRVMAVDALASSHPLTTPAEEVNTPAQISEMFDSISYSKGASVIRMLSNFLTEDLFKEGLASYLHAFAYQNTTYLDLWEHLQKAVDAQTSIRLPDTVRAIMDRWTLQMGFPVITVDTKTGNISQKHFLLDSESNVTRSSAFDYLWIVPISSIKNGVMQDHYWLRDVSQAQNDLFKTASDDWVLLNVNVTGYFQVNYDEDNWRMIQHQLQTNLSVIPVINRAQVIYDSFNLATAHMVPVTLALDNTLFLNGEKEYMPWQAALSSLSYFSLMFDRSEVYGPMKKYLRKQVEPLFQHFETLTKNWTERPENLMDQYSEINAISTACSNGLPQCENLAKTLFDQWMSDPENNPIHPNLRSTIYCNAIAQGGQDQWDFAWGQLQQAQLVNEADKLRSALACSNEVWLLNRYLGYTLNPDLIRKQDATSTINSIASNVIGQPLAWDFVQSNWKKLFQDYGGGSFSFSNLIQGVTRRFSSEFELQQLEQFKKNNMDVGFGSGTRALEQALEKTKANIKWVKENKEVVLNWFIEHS
# measurement description: Effect of chemical reagents (inhibitors, metallic cations) on LAP activity with Leu-AMC
# Assay type: biochemical
# details: cation salt 1 mM; Leu-MCA substrate
A number alone suffices; assume %.

Give recorded pkLAP hydrolytic activity, percentage of control without any cation with pkLAP (microsomal LAP from porcine kidney) (Sus scrofa, UniProt P15145) for the following compound: [Cl-].[Cl-].[Mg+2]
146.1

Same again, this time with [Cl][Mn][Cl]
165.8

Same again, this time with [Cl-].[Cl-].[Co+2]
899.8

Same again, this time with [Cl][Cu][Cl]
1092.4

Same again, this time with [Ca+2].[Cl-].[Cl-]
161.8

Same again, this time with [Cl-].[Cl-].[Zn+2]
297.9

Same again, this time with [Cl][Ni][Cl]
1158.7

----------
# study system: ruLAP2 (Trichophyton rubrum, UniProt Q5QHG6)
# Sequence (Q5QHG6 22-495): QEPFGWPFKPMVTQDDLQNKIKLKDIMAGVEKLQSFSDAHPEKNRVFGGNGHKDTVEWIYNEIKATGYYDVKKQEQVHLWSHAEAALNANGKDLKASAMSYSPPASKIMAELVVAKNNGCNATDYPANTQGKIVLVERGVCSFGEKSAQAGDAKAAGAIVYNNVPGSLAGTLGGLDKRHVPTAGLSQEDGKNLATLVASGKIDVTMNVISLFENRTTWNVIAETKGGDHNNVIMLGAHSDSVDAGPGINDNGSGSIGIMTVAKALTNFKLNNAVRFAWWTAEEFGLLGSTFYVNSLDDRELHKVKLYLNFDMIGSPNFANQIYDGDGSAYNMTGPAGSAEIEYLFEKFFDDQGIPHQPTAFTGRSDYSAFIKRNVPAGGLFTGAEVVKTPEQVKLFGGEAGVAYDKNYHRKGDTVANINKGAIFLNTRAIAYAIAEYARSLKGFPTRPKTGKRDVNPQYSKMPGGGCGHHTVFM
# Format: biochemical
# details: cation salt 0.5 mM; Leu-MCA substrate
reported metric: ruLAP2 hydrolytic activity, percentage of control without any cation (%)
A number alone suffices; assume %.

So what does the record say about ruLAP2 hydrolytic activity, percentage of control without any cation for [Cl-].[Cl-].[Co+2] ?
591.2

Same again, this time with [Cl][Mn][Cl]
77.5

Same again, this time with [Cl-].[Cl-].[Zn+2]
77.9

Same again, this time with [Cl][Cu][Cl]
50.9

Same again, this time with [Ca+2].[Cl-].[Cl-]
126.6

Same again, this time with [Cl-].[Cl-].[Mg+2]
121.2

Same again, this time with [Cl][Ni][Cl]
130.5

----------
# study system: ruLAP2 (Trichophyton rubrum, UniProt Q5QHG6)
# Type: biochemical
# details: cation salt 1 mM; Leu-MCA substrate
reported metric: ruLAP2 hydrolytic activity, percentage of control without any cation

So what does the record say about ruLAP2 hydrolytic activity, percentage of control without any cation for [Cl-].[Cl-].[Mg+2] ?
110.2%

Same again, this time with [Cl][Cu][Cl]
34.7%

Same again, this time with [Ca+2].[Cl-].[Cl-]
141.9%

Same again, this time with [Cl-].[Cl-].[Co+2]
789.7%

Same again, this time with [Cl][Mn][Cl]
86.8%

Same again, this time with [Cl-].[Cl-].[Zn+2]
88.9%

Same again, this time with [Cl][Ni][Cl]
147.9%

----------
# study system: UniProt:Q5VJG6
# Sequence (Q5VJG6 15-388, looked up, natural form): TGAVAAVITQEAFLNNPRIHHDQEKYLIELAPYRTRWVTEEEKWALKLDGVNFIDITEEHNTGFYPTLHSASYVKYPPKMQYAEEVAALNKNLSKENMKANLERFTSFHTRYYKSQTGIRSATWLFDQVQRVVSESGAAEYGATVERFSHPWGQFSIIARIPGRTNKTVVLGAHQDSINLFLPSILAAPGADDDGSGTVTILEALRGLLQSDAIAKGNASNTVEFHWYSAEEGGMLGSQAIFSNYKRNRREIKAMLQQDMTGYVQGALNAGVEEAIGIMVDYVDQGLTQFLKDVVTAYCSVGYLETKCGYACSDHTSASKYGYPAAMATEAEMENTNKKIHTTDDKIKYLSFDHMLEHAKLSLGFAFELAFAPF
# Type: biochemical
# details: cation salt 1 mM; Leu-MCA substrate
# Description: Inhibitors and metallic cations were pre-incubated with the enzymes for 15 min at 37° C. Then, Leu-AMC at a 5 mM final concentration was added. After further incubation for 60 min, enzyme activity was measured as described above. The inhibitors and their concentrations tested purified LAPs were: 500 μM amastatin (Bachem), 40 μM benzamidine (Sigma), 500 μM bestatin (Bachem), 5 mM/l mM EDTA (Sigma). […]
For each entry below, report its fuLAP1 hydrolytic activity, percentage of control without any cation value.
A number alone suffices; assume %.

So what does the record say about fuLAP1 hydrolytic activity, percentage of control without any cation for [Cl-].[Cl-].[Zn+2] ?
53.2

Same again, this time with [Cl][Cu][Cl]
17.0

Same again, this time with [Cl-].[Cl-].[Co+2]
96.5

Same again, this time with [Cl-].[Cl-].[Mg+2]
72.6

Same again, this time with [Cl][Ni][Cl]
37.2

Same again, this time with [Ca+2].[Cl-].[Cl-]
43.3

Same again, this time with [Cl][Mn][Cl]
28.4
